experiment: folding stability dG unfold (combined trypsin and chymotrypsin); higher = more stable
Assign 1 to entries whose folding stability dG unfold meets or exceeds 2 kcal/mol; assign -1 to the rest.

[
  {
    "SEQ_TEXT": "SAGGSAPSISYTDPNITTITVNPPYITTTRPDGTTTVYKVNNGGDITKLKTTPPVPPAAATDASVASAGGSA [r15_393_JUSTAS]",
    "LABEL_CLASS": -1
  },
  {
    "SEQ_TEXT": "SAGGSDPVSVSTEGGNTYVTVGDTPVLRLSKGKPEPPVLVTLPNGEVIEMPRSEALARDPSTIEFTPGSAGG [r13_802_JUSTAS]",
    "LABEL_CLASS": -1
  },
  {
    "SEQ_TEXT": "SGNSLNEKGESYPITVKAPDPNVTPEQVKAALEKAGAKVLEIKRPPKGSTLTVSVEITDPEKVKEAFEKLSA [r9_1154_JUSTAS]",
    "LABEL_CLASS": -1
  },
  {
    "SEQ_TEXT": "SAGGSAGGSAGTVEEIAKYFAGEFPNYKVNIDVEWEGGKITSVDIEWEVVPPPPPESPGKSAGGSAGGSAGG [r11_197_TrROS]",
    "LABEL_CLASS": -1
  },
  {
    "SEQ_TEXT": "SAGGSAGGSAGGDKNKPPKLKVKLKIEFPFTLPDGVKVRLEVEIDLDSDVIEPRAEVIDSSAGGSAGGSAGG [r7_213_TrMRF]",
    "LABEL_CLASS": 1
  },
  {
    "SEQ_TEXT": "SATTTTETLPDGGVLTTTTLPDGSPATGLIDPANGAPFTATHPNGLRTVWSQSPSGKVTTLSTTNVPPSSAG [r14_877_JUSTAS]",
    "LABEL_CLASS": -1
  },
  {
    "SEQ_TEXT": "SAGGSATVTVTLVVRDPATGELTTVTATVTLEAAPAPVSVSLSLSLSRDPNGNLSLSLSVSVTVEGSAGGSA [r2_326_TrROS_Hall]",
    "LABEL_CLASS": 1
  },
  {
    "SEQ_TEXT": "SPIRIRIWNPKNNVPIDEIDIQPNEDGNYGIKIKFWMPGKQHEHTIPIPPGETADEFINDHGIRSIEIEPSA [r9_492_TrROS]",
    "LABEL_CLASS": -1
  },
  {
    "SEQ_TEXT": "SAGGGMTVTIEVEGSIKKSIKGISYKDDKEKKESNKNKYLKKTITVTLTAEDDPNAAAAAIAALGLGSAGGS [r16_467_JUSTAS]",
    "LABEL_CLASS": -1
  },
  {
    "SEQ_TEXT": "SAGIFRFPDGQEITIPYYARTPNGKITPSEIKEQIKEFLAEQPGVKITEIEVEHEDNYVRVTITVRLPKSAG [r5_688_TrROS]",
    "LABEL_CLASS": -1
  },
  {
    "SEQ_TEXT": "SAGGSAGGSGNATVMLMFPIEISITVMEWDNGKPKMKTQEIEIWVMIMIPVPPPPDPGDPEWNSAGGSAGGS [r12_713_TrROS]",
    "LABEL_CLASS": 1
  },
  {
    "SEQ_TEXT": "SPIVTDLPPKEATRVEVEALVEELEAKGEPPREVVVYDPSRGVPLATIPVTSREELLAAVEAGRPFRVLLSA [r9_718_JUSTAS]",
    "LABEL_CLASS": -1
  },
  {
    "SEQ_TEXT": "SAGGSAGGSAGGSMGPVPVWITIKIPDKNGKPKRKIEIPMEGPNMTPSEIRKQAKPFIKSAGGSAGGSAGGS [r4_375_TrROS]",
    "LABEL_CLASS": -1
  },
  {
    "SEQ_TEXT": "SAGGSAGGSAAITIPVPPGETVTIKIEIEMTVPPNQRNPDGQRMKPGQKVRMEVTFTFRVDGSAGGSAGGSA [r18_450_TrROS]",
    "LABEL_CLASS": 1
  },
  {
    "SEQ_TEXT": "SAGGSAGGSAGGVRPNPNGQYEVTVTIRNPGGGNKREKTINATPDEIEELQDQGFEIEPSAGGSAGGSAGGS [r10_749_TrROS]",
    "LABEL_CLASS": -1
  },
  {
    "SEQ_TEXT": "SAGEIAEYIAEYLAQEPGFQDVEVNIKITDIEPPPNGYMYHKIDIHVRVRNPDDGKPREVNFDITFPMPSAG [r5_176_TrROS]",
    "LABEL_CLASS": -1
  },
  {
    "SEQ_TEXT": "SAGGSAGGSMELPSGVVVKSTSEDPAAKTVTVSFPSGAVYTLPLPDPNVSQPVTVKTPPGAGVSAGGSAGGS [r12_149_JUSTAS]",
    "LABEL_CLASS": -1
  },
  {
    "SEQ_TEXT": "SAGGSAGGSMKVVKVELTLTGPGGEVTYLEEEIEVPEDELGEIEVSLPDENLSYEVTVEVIEESAGGSAGGS [r12_354_JUSTAS]",
    "LABEL_CLASS": -1
  },
  {
    "SEQ_TEXT": "SAGGSAGGSLVELEEEDPSVPVRRRYFIEKPSDGKVKVKEETVVPEPGEVVRSERVISLEEFEKSAGGSAGG [r6_652_JUSTAS]",
    "LABEL_CLASS": -1
  },
  {
    "SEQ_TEXT": "SALLVAPDGTVVKPETIKTTVETFTTYFLPPGKPVTRKGVKEYTVTVTTTTYTTPNPTLTVETTVTTVGSAG [r14_291_JUSTAS]",
    "LABEL_CLASS": -1
  },
  {
    "SEQ_TEXT": "SAGGSAGGSAGKKITLPNATITYDEETGEVTITVDGKTITLPPGAKIEVDENGNLTIYLPSAGGSAGGSAGG [r17_34_TrROS_Hall]",
    "LABEL_CLASS": 1
  },
  {
    "SEQ_TEXT": "SAGGSAGGSKMLLVKVYVPEFDTVVVFEAPRDITIEEIEERLREAGFSVARIEVVEFDLPEGGSAGGSAGGS [r12_955_TrMRF]",
    "LABEL_CLASS": 1
  },
  {
    "SEQ_TEXT": "SAGGGFSVSTGTLTDPVTGKPITLTVTNLPDGVSRVTVTLEDGKTFEFTFPANNPPTPEQVAEAVKAFSAGG [r13_492_TrMRF]",
    "LABEL_CLASS": 1
  },
  {
    "SEQ_TEXT": "SAGGSAGGSPNTIEIWIQIPPGDPEKVEEIAKKLRDEGFKDIKVDEVHRNPDDSYYVEIKITVSAGGSAGGS [r12_91_TrROS]",
    "LABEL_CLASS": -1
  },
  {
    "SEQ_TEXT": "SAGGSAGGSAMDAEEIADMIKEILRKQFPNVKITEITVERRPPGNYYVEARVPDGNQRTIPISAGGSAGGSA [r18_423_TrROS]",
    "LABEL_CLASS": -1
  },
  {
    "SEQ_TEXT": "SAAPDEVVTLEFTVPVVTTFEPGAPYVAPARLTVTFHPPDRVEIRLVSPDGRLVATRTVPPSVLLSEVISAG [r14_559_TrMRF]",
    "LABEL_CLASS": -1
  }
]

Sourced from the supplement of paper PMC12764529
